tgt: UniProtKB Q07343
Sequence (Q07343 whole entry, species assumed): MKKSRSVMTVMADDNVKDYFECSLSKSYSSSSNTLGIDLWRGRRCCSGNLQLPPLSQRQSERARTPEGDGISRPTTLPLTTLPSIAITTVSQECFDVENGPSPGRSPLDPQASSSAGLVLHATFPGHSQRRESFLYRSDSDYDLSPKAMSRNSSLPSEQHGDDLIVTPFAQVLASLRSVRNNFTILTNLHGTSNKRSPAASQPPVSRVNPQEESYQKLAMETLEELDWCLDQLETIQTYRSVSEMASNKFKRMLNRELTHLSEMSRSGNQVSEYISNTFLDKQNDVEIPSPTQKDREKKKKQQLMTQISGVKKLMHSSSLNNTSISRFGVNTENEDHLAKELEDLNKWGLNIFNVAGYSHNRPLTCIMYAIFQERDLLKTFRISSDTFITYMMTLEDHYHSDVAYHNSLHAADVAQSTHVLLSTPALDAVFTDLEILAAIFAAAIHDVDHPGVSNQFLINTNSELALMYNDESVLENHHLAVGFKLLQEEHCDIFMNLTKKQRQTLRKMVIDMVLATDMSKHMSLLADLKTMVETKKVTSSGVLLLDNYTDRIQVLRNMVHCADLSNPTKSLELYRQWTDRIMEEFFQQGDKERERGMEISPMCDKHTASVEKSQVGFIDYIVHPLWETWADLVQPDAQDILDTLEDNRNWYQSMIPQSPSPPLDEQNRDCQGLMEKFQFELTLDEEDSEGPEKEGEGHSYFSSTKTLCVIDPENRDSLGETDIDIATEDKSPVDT
assay.comment: Scintillation Proximity Assay (SPA) of PDE4B enzyme activity ([H3]-cAMP cleavage)
Type: biochemical
protocol.conditions: test substance 1 μM; one-hour incubation of [H3]-cAMP with PDE4B enzyme at 30° C.
Assign inhibition at 1 µM to each entry below.
// units = %; emit number, no label

Data request: Lab note: need inhibition at 1 µM for [O-][S+]1CCc2nc(N3CCC(c4nc(-c5ccncc5)no4)CC3)nc(NC3CCOCC3)c21 (centres unmarked) on UniProtKB Q07343, anyone have it?
Data returned: 95

Data request: Hello, I am looking for reported inhibition at 1 µM with UniProtKB Q07343 for [O-][S+]1CCc2nc(N3CCC(c4noc5ccccc45)CC3)nc(Nc3cccc(F)c3)c21 (centres unmarked) . Could you help?
Data returned: 97

Data request: Test system UniProtKB Q07343; read-out inhibition at 1 µM; what value for CC(C)[C@H](CO)Nc1nc(N2CCC(c3noc4cc(F)ccc34)CC2)nc2c1[S+]([O-])CC2 (some centres unmarked) ?
Data returned: 95

Data request: Hello, I am looking for reported inhibition at 1 µM with UniProtKB Q07343 for CC(C)[C@H](CO)Nc1nc(N2CCC(O)(c3cc(F)cc(F)c3)CC2)nc2c1[S+]([O-])CC2 (some centres unmarked) . Could you help?
Data returned: 92

Data request: Item: COc1ccc(C2CCN(c3nc4c(c(NC5CCOCC5)n3)[S+]([O-])CC4)CC2)cc1 (centres unmarked) Test system: UniProtKB Q07343 Read-out: inhibition at 1 µM Value: ?
Data returned: 94

Data request: Hello, I am looking for reported inhibition at 1 µM with UniProtKB Q07343 for [O-][S+]1CCc2nc(N3CCC(c4c[nH]c5ccccc45)CC3)nc(NC3CCOCC3)c21 (centres unmarked) . Could you help?
Data returned: 96

Data request: Test system UniProtKB Q07343; read-out inhibition at 1 µM; what value for [O-][S+]1CCc2nc(N3CCC(c4ccc(F)cc4)CC3)nc(NC3(CO)CC3)c21 (centres unmarked) ?
Data returned: 94

Data request: Record [O-][S+]1CCc2nc(N3CCC(c4c[nH]cn4)CC3)nc(NC3(CO)CC3)c21 (centres unmarked) : what is its inhibition at 1 µM with UniProtKB Q07343?
Data returned: 87
